The values you see were collected from PubChem BioAssay.

system: Torsin-1A (Homo sapiens)
assay-notes: small-molecule binders of mutant TOR1A in lysate, primary screen, cell lysate, small-molecule microarray, COS7 lysate, 635/667 nm fluorescence (AID 1150);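 note: score pools 667 nm emission and signal to noise measuring lysate protein binding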
condition-label: COS7 hTOR1A mutant lysate, 635 nm fluorescence, higher = more signal
Threshold rule: composite z-score greater than or equal to 0.4 is condition met; below that, condition not met.

Field: example entries. Status: answers known.
{"compound": "CC(C)=CCCC(C)=CCON=C1C[C@@H](O)[C@@H](O)[C@@H]2[C@@H]3C(=O)N(C(C)(C)C)C(=O)[C@@H]3CC[C@H]12", "system": "Torsin-1A (Homo sapiens)", "group-label": "condition met"}
{"compound": "CCOC(=O)[C@H](CC(C)C)NC(=O)CCC1CC(OC(=O)NCc2cccc3ccccc23)CC2(CCCC(COC(=O)NCC3CCCCC3)O2)O1 (some centres not stated)", "system": "Torsin-1A (Homo sapiens)", "group-label": "condition met"}
{"compound": "CCOC(=O)[C@H](CC(C)C)NC(=O)CCC1CC(OC(=O)NCCc2ccc(F)cc2)CC2(CCCC(COC(=O)NCC(c3ccccc3)c3ccccc3)O2)O1 (some centres not stated)", "system": "Torsin-1A (Homo sapiens)", "group-label": "condition not met"}
{"compound": "CCN1C(=O)[C@H]2[C@H]3[C@H](O)[C@H](O)CC(=O)[C@H]3CC[C@H]2C1=O", "system": "Torsin-1A (Homo sapiens)", "group-label": "condition not met"}

Req: Quick check, composite z-score >= 0.4? `O=C1C=C[C@@H](O)[C@@H]2[C@@H]3C(=O)N(C[C@@H]4CCCO4)C(=O)[C@@H]3CC[C@@H]12`
Resp: condition met

Req: Confirm if composite z-score reported for the compound `CCCCC#C[C@@H]1C=C[C@H](Oc2cc(OC)c(OC)c(OC)c2)[C@@H](COC(=O)OCC)O1` is 0.4 or above.
Resp: condition not met

Req: Say whether `COC(=O)CC=C[C@@H](C)[C@@H](C=NOC[C@H]1O[C@H](c2ccccc2)C=C[C@@H]1Oc1ccc(OC)cc1)OC` shows composite z-score of 0.4 or more.
Resp: condition not met

---

Documented composite z-score across a set of compounds
Tested on: Human papillomavirus type 1a protein E7 (residues 44-93)
assay-notes: HPV1a E7 fragment binders on microarrays, primary screen, biochemical, small-molecule microarray, residues 44-93, 635 nm fluorescence (AID 1108);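 note: E7 fragment applied at 1 µg/mL in TBST for 1 h at 4 C; score combines spot fluorescence with its signal to noise ratio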
condition-label: small-molecule microarray binding, fluorescence 635 nm; higher = more signal
Quick one: just the number, no unit, thanks!

{"compound": "O=C1C[C@@H](O)[C@@H](O)[C@@H]2[C@@H]3C(=O)N(Cc4ccc5c(c4)OCO5)C(=O)[C@@H]3CC[C@H]12", "measurement-label": "composite z-score", "recorded-number": 0.508}
{"compound": "O=C1[C@H]2[C@H]3[C@H](O)[C@H](O)CC(=NOC[C@@H](O)COCc4ccco4)[C@@H]3CC[C@H]2C(=O)N1C[C@@H]1CCCO1", "measurement-label": "composite z-score", "recorded-number": 0.0714}

Note to self: composite z-score recorded for `CC(C)=NOC[C@@H](C)[C@H](OCc1ccccc1)C(C)C` was -1.19

The reported composite z-score of the compound CCOC(=O)[C@H](CC(C)C)NC(=O)CCC1CC(OC(=O)NCCc2ccc(F)cc2)CC2(CCCC(COC(=O)NCCC(C)C)O2)O1 (some centres undefined) was 0.48

---

assay-notes: PSAC antagonists in infected red cells, primary screen, cell-based, P. falciparum Indochina, OD700, 18 h (AID 1157)
condition-label: P. falciparum Indochina infected erythrocytes, osmotic lysis OD700, 18 h; higher = more signal, called active from +8 up or from −8 down
Tag: label 1 if measured z-score is not below 0.2, label 0 if it is.

Req: Is z-score at least 0.2? Consider `CCN1C(=O)[C@H]2[C@H]3[C@H](O)[C@H](O)CC(=NNC(=O)OCc4ccc(OC)cc4)[C@@H]3CC[C@H]2C1=O`
Resp: label 0

Req: Is z-score for CC(=O)O[C@H]1C2=CO[C@H](C)[C@H]3[C@H]4C5=C([C@H](O)[C@H]6O[C@H]6C5=O)[C@H](OC4C)[C@@]23C(=O)[C@@H]2O[C@@H]21 (stereo partly specified) at or above 0.2?
Resp: label 0

Req: Does the molecule `O=c1n(Cc2cc3c(cc2Cl)OCO3)c(=O)n2n1CC[C@@H]1C(=NOCc3ccccc3)[C@H]3O[C@H]3[C@@H](O)[C@@H]12` have recorded z-score that is 0.2 or more?
Resp: label 0

Req: For this molecule, is measured z-score 0.2 or higher? `C#CCCCON=C1C[C@@H](O)[C@@H](O)[C@@H]2[C@@H]3C(=O)N(c4cccc(Oc5ccccc5)c4)C(=O)[C@@H]3CC[C@H]12`
Resp: label 1

Req: Reported z-score at or above 0.2? C[C@H]1CC[C@H]2C(=O)OC(CO)CN2[C@@H]1c1ccc(Br)cc1 (stereo partly specified)
Resp: label 1

---

assay-notes: CREB reporter modulators without forskolin, primary screen, cell-based, PC12, CRE-LacZ reporter, unstimulated (AID 1145)
condition-label: no forskolin, luminescence, 4.5 h, higher = more signal, called active from +8 up or from −8 down
measurement-label: z-score
Respond numerically, and do not add a unit to the figure.

{"compound": "CC(C)(C)N1C(=O)[C@H]2[C@H]3[C@H](O)C=CC(=O)[C@@H]3CC[C@H]2C1=O", "z-score": 1.06}
{"compound": "CC(C)=CCCC(C)=CCON=C1C[C@@H](O)[C@@H](O)[C@@H]2[C@@H]3C(=O)N(C4CCCCC4)C(=O)[C@@H]3CC[C@@H]12", "z-score": 0.517}
{"compound": "CCOC(=O)CCN1C(=O)[C@H]2[C@H]3[C@H](O)[C@H](O)CC(=NOCC(C)C)[C@H]3CC[C@H]2C1=O", "z-score": -0.0187}
{"compound": "CC(C)=CCCC(C)=CCON=C1C[C@@H](O)[C@@H](O)[C@@H]2[C@@H]3C(=O)N(c4ccc(F)cc4F)C(=O)[C@@H]3CC[C@@H]12", "z-score": 1.24}

In plain terms, `COC(=O)CC=C[C@@H](C)[C@@H](C=NO[C@H](C)c1cn([C@H](CO)Cc2ccccc2)nn1)OC` has a documented z-score of 0.359

The compound listed as `CCCNC(=O)OC[C@H]1O[C@H](c2ccccc2)C=C[C@@H]1Oc1ccc(OC)cc1` has a reported z-score of 0.735

Entry `CO[C@H]1COC(=O)CCC[C@@H](C)[C@H](OC)COC(=O)[C@@H](C)NC(=O)CC=C[C@@H]1C` ; z-score = -0.58

Short answer for `COc1cccc([C@H]2Oc3ccc(OC)cc3C(=NO[C@H](C)c3cn([C@H](CO)Cc4ccccc4)nn3)[C@@H]2O)c1` : z-score was 3.87

z-score recorded for this compound, CCOC(=O)[C@H](CC(C)C)NC(=O)CCC1CC(OC(=O)NCc2ccc3c(c2)OCO3)CC2(CCCC(COC(=O)NCC3CCCCC3)O2)O1 (some centres undefined) , is -0.0732

---

assay-notes: COS7 lysate on small-molecule microarray, probe aHis, 635 nm (AID 1123);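 note: z-score combines 667nm fluorescence intensity with signal-to-noise per printed compound spot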
condition-label: COS7 cell lysate, fluorescence, higher = more signal
Catalogue of composite z-score readings, one per entry.
Enter the number alone.

{"molecule": "Cc1ccc(S(=O)(=O)N[C@@H]2COC(=O)[C@@H](C)COC(=O)CC=C[C@H]2C)cc1", "recorded-number": -0.0704}
{"molecule": "CC(=O)OC[C@H]1OC(ON=CC[C@@H]2C=C[C@H](OC(C)=O)[C@@H](COC(C)=O)O2)[C@H](OC(C)=O)[C@@H](OC(C)=O)[C@@H]1OC(C)=O (stereo partly drawn)", "recorded-number": -0.011}
{"molecule": "CCOC(=O)NN=C1C[C@@H](O)[C@@H](O)[C@@H]2[C@@H]3C(=O)N([C@@H](C)c4ccccc4)C(=O)[C@@H]3CC[C@H]12", "recorded-number": -0.156}
{"molecule": "C=Cc1ccc([C@H]2N[C@H](C(=O)O)CC[C@@H]2C)cc1", "recorded-number": -0.344}
{"molecule": "CCOC(=O)[C@H](Cc1ccccc1)NC(=O)CCC1CC(OC(=O)NCc2cccc3ccccc23)CC2(CCCC(COC(=O)NCc3ccccc3)O2)O1 (stereo partly drawn)", "recorded-number": 1.06}
{"molecule": "CON=CC[C@@H]1C=C[C@H](OC(C)=O)[C@@H](COC(C)=O)O1", "recorded-number": 0.043}
{"molecule": "O=C1C[C@@H](O)[C@@H](O)[C@@H]2[C@@H]3C(=O)N(c4cccc(Oc5ccccc5)c4)C(=O)[C@@H]3CC[C@H]12", "recorded-number": 0.104}

Please turn your attention to the following entry.
The measured composite z-score associated with `CON=Cc1ccc(C(=O)N2[C@H](c3ccc(C)cc3)[C@@H](C)CC[C@H]2C(=O)OC)cc1` reads 0.715
